- System: HCC-2998 colon
- protocol_description: NCI tumour cell line growth inhibition, 48 h
Provide the reported TGI of each item.

Cc1cnc2cc(Cl)ccc2c1NCCN(CC(C)C)CC(C)C :: > 100 µM
Cc1ccc(C2=NN=C3C(c4ccccc4)=Nc4ccccc4N3C2)cc1 :: > 100 µM
CN1CCC2(CC1)C(=O)N(NC(N)=O)C(=O)C2c1ccccc1 (stereo not given) :: > 100 µM

Kindly give each listed record's TGI.
1. Nc1nc(N)c2cc(Sc3ccc(Cl)cc3)ccc2n1
2. COc1cc(C)cc(C(=O)OCc2ccccc2)c1C1=C(Cl)C(=O)C(Cl)=CC1=O
3. O=C(NC(=S)Nc1ccc(-c2nc3ccccc3[nH]2)cc1)c1ccc2ccccc2c1
4. COc1cc(C2SC(N)=Nc3c2c(C)nn3C(=O)Cc2ccccc2)cc(OC)c1OC (stereo not given)
5. Cc1ccc2[nH]c3c(C)c4cc[n+](C)cc4c(C)c3c2c1
6. N#C/C(=C\c1ccc([N+](=O)[O-])cc1)n1nnc2cc(F)c(F)cc21
7. Cc1cc2c(=O)cc(-c3ccc(C(=O)O)cc3)oc2c(C(N)=O)c1C

[out]
1: 2.43 µM; 2: > 10 µM; 3: > 100 µM; 4: > 100 µM; 5: 10.1 µM; 6: 3.36 µM; 7: > 100 µM
